Listed here are compounds together with their documented composite z-score.
Target: Follistatin-related protein 3 (Homo sapiens) (UniProt O95633)
Sequence (O95633 whole entry, looked up): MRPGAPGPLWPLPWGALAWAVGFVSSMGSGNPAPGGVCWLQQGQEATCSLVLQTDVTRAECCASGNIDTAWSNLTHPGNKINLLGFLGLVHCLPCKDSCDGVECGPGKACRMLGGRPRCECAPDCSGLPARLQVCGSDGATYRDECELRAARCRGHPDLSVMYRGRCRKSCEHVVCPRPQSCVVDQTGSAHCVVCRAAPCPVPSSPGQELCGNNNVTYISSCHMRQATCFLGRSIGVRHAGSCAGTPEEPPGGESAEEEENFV
Assay: FSTL3 binders on small-molecule microarrays, primary screen, biochemical, small-molecule microarray, 635 nm fluorescence (AID 1105);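 note: score merges emission near 667 nm and signal to noise per printed spot across three slides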
Details: FSTL3 binding, higher = more signal
Number only, no unit.

Use these answered entries as a reference point.
>>> reported_measurement("O=C(NN=C1C[C@@H](O)[C@@H](O)[C@@H]2[C@@H]3C(=O)N(Cc4ccc5c(c4)OCO5)C(=O)[C@@H]3CC[C@H]12)OCc1ccccc1")
-0.904
>>> reported_measurement("COC(=O)[C@H](C)NC(=O)CCC1CC(OC(=O)NCCc2ccc(F)cc2)CC2(CCCC(COC(=O)NCCCN3CCCC3=O)O2)O1 (stereo partly drawn)")
1.36

QUERY: Quick one: composite z-score of C[C@@H](ON=C1[C@H]2CCn3c(=O)n(-c4ccccc4)c(=O)n3[C@H]2[C@H](O)[C@@H]2O[C@H]12)c1cn([C@H](CO)Cc2ccccc2)nn1 ?
RESULT: 0.572

====

Test: binders of probe aFGF2 on microarray, primary screen, stem cell growth factor project, biochemical, small-molecule microarray, fluorescence 635/667 (AID 1067);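 note: measures binding of biotinylated aFGF2 protein to printed compounds on slides; z-score merges feature fluorescence and signal-to-noise across triplicate slides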
Details: higher = more signal
Entry flag: TRUE if composite z-score reaches -0.1; FALSE if it does not.

>>> answer_label("CCCNC(=O)OC[C@H]1O[C@H](CCON=C(C)CCC(=O)OC[C@H]2O[C@H](C#Cc3ccccc3)C=C[C@@H]2Oc2ccc(C)cc2)C=C[C@@H]1Oc1ccc(OC)cc1")
"FALSE"

QUERY: Is composite z-score at least -0.1? Consider CCN1C(=O)[C@H]2[C@H]3[C@H](O)[C@H](O)CC(=NNC(=O)OCc4ccc(OC)cc4)[C@H]3CC[C@H]2C1=O
RESULT: TRUE

QUERY: Is composite z-score at least -0.1? Consider C=C(C)C(=O)OC[C@@H]1CN2[C@@H](CC[C@@H](C)[C@@H]2c2ccc(Br)cc2)C(=O)O1
RESULT: TRUE

====

Molecular target: Fibroblast growth factor 2 (Homo sapiens) (UniProt P09038)
Sequence (P09038 whole entry, looked up): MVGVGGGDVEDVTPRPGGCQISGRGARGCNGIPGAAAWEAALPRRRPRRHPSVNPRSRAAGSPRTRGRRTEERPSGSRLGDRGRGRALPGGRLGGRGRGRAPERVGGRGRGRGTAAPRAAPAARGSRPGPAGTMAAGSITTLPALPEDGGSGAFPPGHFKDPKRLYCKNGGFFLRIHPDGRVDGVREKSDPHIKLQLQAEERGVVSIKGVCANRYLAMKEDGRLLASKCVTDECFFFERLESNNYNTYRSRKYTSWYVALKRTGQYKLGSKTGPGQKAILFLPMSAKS
Experiment: FGF2 binders on small-molecule microarrays, primary screen, biochemical, small-molecule microarray, 635/667 nm fluorescence (AID 1133)
Details: small-molecule microarray binding, FGF2, fluorescence 635/667; higher = more signal
Entry flag: y if composite z-score reaches 0.3; n if it does not.

// known answers, use as guide
>>> answer_label("CC(C)=NO[C@@H](C)c1cc(-c2c(C)cc(C)cc2C)no1")
"n"
>>> answer_label("CO[C@@H]1COC(=O)CC=C[C@H](C)COC(=O)[C@H](C)NC(=O)CC=C[C@H]1C")
"y"
>>> answer_label("Cc1ccc(S(=O)(=O)N[C@H]2COC(=O)[C@@H](C)COC(=O)[C@H](C)NC(=O)CC=C[C@H]2C)cc1")
"y"

QUERY: Is composite z-score at least 0.3? Consider O=C(NN=C1C[C@@H](O)[C@@H](O)[C@@H]2[C@@H]3C(=O)N(Cc4ccc5c(c4)OCO5)C(=O)[C@@H]3CC[C@H]12)OCc1ccccc1
RESULT: n

QUERY: Is composite z-score at least 0.3? Consider COc1ccc(COC(=O)NN=C2C[C@@H](O)[C@@H](O)[C@@H]3[C@@H]4C(=O)N(C(C)(C)C)C(=O)[C@@H]4CC[C@H]23)cc1
RESULT: y

QUERY: Is composite z-score at least 0.3? Consider CCOC(=O)NN=C1C[C@@H](O)[C@@H](O)[C@@H]2[C@@H]3C(=O)N(Cc4ccc5c(c4)OCO5)C(=O)[C@@H]3CC[C@@H]12
RESULT: n

QUERY: Is composite z-score at least 0.3? Consider CO[C@H]1COC(=O)CC=C[C@@H](C)COC(=O)[C@@H](OCc2ccccc2)C=C[C@@H]1C
RESULT: y

====

Experiment: S. cerevisiae RM11-1a growth modifiers, primary screen, strain RM11-1a, OD600, basal, 24 h (AID 1177);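 note: cultures grown under basal conditions with no added stressor; test concentration not given here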
Conditions: OD600, 24 h, higher = more signal, called active from +8 up or from −8 down
Entry flag: Met if z-score reaches -0.4; Not met if it does not.

>>> answer_label("CC(C)=CCCC(C)=CCON=C1C[C@@H](O)[C@@H](O)[C@@H]2[C@@H]3C(=O)N([C@@H](C)c4ccccc4)C(=O)[C@@H]3CC[C@H]12")
"Not met"

QUERY: Is z-score at least -0.4? Consider Cc1ccc(S(=O)(=O)N[C@H]2COC(=O)[C@@H](C)COC(=O)[C@H](C)NC(=O)CC=C[C@H]2C)cc1
RESULT: Met

QUERY: Is z-score at least -0.4? Consider O=C(NN=C1C[C@@H](O)[C@@H](O)[C@@H]2[C@@H]3C(=O)N(Cc4ccc5c(c4)OCO5)C(=O)[C@@H]3CC[C@H]12)OCc1ccccc1
RESULT: Met

QUERY: Is z-score at least -0.4? Consider CCOC(=O)[C@H](CC(C)C)NC(=O)CCC1CC(OC(=O)NCc2cccc3ccccc23)CC2(CCCC(COC(=O)NCc3ccccc3)O2)O1 (stereo partly specified)
RESULT: Not met

QUERY: Is z-score at least -0.4? Consider CC(C)CON=C1C[C@@H](O)[C@@H](O)[C@@H]2[C@@H]3C(=O)N(c4cccc(Oc5ccccc5)c4)C(=O)[C@@H]3CC[C@H]12
RESULT: Met

====

Assay: MM1S cell viability effects, profiling panel, calcein-AM fluorescence, 48 h, basal (AID 1165);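 note: viability of MM1S multiple myeloma cells under basal unstimulated conditions; test concentration not given here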
Settings: higher = more signal
QUANTITY: z-score

>>> reported_measurement("CO[C@@H]1COC(=O)CC=C[C@H](C)COC(=O)[C@H](C)NC(=O)CC=C[C@H]1C")
0.122

// next entry
QUERY: Quick one: z-score of CCCNC(=O)OC[C@H]1O[C@H](CCON=C(C)CCN2CCc3nc(-c4ccccc4)c(-c4ccccc4)cc3C2)C=C[C@@H]1Oc1ccc(OC)cc1 ?
RESULT: -0.893

====

System: Chordin-like protein 2 (CHRDL2)
Assay: CHRDL2 small-molecule binders, primary screen, biochemical, small-molecule microarray, 635 nm fluorescence (AID 1126);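 note: printed compound slides probed with Chrdl2 protein at 4 µg/mL for 1 h at 4 C; score merges 667 nm emission intensity with signal to noise over three replicate slides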
Conditions: small-molecule microarray binding, fluorescence 635 nm; higher = more signal
Entry flag: fulfilled if composite z-score reaches 0.3; not fulfilled if it does not.

// known answers, use as guide
>>> answer_label("CC(C)C(=O)N[C@@H]1CCCN1C(=O)C=Cc1ccccc1")
"fulfilled"
>>> answer_label("CC(C)=NOCc1ccc(-c2cn([C@@H]3COC[C@H]3O)nn2)cc1")
"fulfilled"
>>> answer_label("CO[C@@H]1COC(=O)CC=C[C@H](C)COC(=O)[C@H](C)NC(=O)CC=C[C@H]1C")
"fulfilled"
>>> answer_label("CCOC(=O)NN=C1C[C@@H](O)[C@@H](O)[C@@H]2[C@@H]3C(=O)N(Cc4ccc5c(c4)OCO5)C(=O)[C@@H]3CC[C@@H]12")
"not fulfilled"
>>> answer_label("C[C@@H]1CC[C@@H](C(=O)O)N[C@H]1c1ccc(-c2ccco2)cc1")
"fulfilled"
>>> answer_label("COC(=O)[C@H](C)NC(=O)CCC1CC(OC(=O)NCCc2ccc(F)cc2)CC2(CCCC(COC(=O)NCCCN3CCCC3=O)O2)O1 (stereo partly drawn)")
"fulfilled"
>>> answer_label("C[C@@H](c1ccccc1)N1C(=O)[C@H]2[C@H]3[C@H](O)[C@H](O)CC(=O)[C@@H]3CC[C@H]2C1=O")
"fulfilled"

For the next question, use this molecule.
QUERY: Is composite z-score at least 0.3? Consider C#CCCCON=C1C[C@@H](O)[C@@H](O)[C@@H]2[C@@H]3C(=O)N(C4CCCCC4)C(=O)[C@@H]3CC[C@H]12
RESULT: not fulfilled

====

Assay: modulators of HCV replicon luciferase signal, primary screen, HCV replication inhibitor project, Huh7 cells, luciferase reporter (AID 1109);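 note: huh7 hepatoma cells harbouring a luciferase neomycin HCV replicon reporter; luciferase luminescence as measure of HCV replicon replication; test concentration not given here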
Conditions: 48 h, higher = more signal
Entry flag: 1 if z-score reaches -1; 0 if it does not.

>>> answer_label("CCOC(=O)[C@H](Cc1ccccc1)NC(=O)CCC1CC(OC(=O)NCc2cccc3ccccc23)CC2(CCCC(COC(=O)NCCCN3CCCC3=O)O2)O1 (some centres not stated)")
1
>>> answer_label("CC(C)CCN1CCc2nc(-c3ccccc3)c3c(c2C1)CO[C@@H](C)C3")
1
>>> answer_label("O=C(NN=C1C[C@@H](O)[C@@H](O)[C@@H]2[C@@H]3C(=O)N(Cc4ccc5c(c4)OCO5)C(=O)[C@@H]3CC[C@H]12)OCc1ccccc1")
1
>>> answer_label("CC(C)=CCCC(C)=CCON=C1C[C@@H](O)[C@@H](O)[C@@H]2[C@@H]3C(=O)N([C@@H](C)c4ccccc4)C(=O)[C@@H]3CC[C@H]12")
1
>>> answer_label("Cc1cc2c(nc1C)CCCN2CC(C)ON=C[C@@H](C)[C@H](OCc1ccccc1)C(C)C (some centres not stated)")
0
>>> answer_label("C[C@@H]1CC[C@@H](C(=O)O)N[C@H]1c1ccc(-c2ccco2)cc1")
1

For the next question, use this molecule.
QUERY: Is z-score at least -1? Consider CCCNC(=O)OC[C@H]1O[C@H](CCON=C(C)CCN2CCc3nc(-c4ccccc4)c(-c4ccccc4)cc3C2)C=C[C@@H]1Oc1ccc(OC)cc1
RESULT: 0
